Km values for the compounds below.
# Test system: MCF-7 cells
# PROCEDURE_TEXT: Cellular uptake of metformin sulfonamides in MCF-7 cells (HPLC)
# Type: in vitro ADME, human
# PARTICULARS: Eadie-Hofstee analysis, transporter II; read-out: Km, transporter II, MCF-7
Give just the numeric value; mM need not be written.

SMI | UNIT_ABBREV | Km
CN(C)C(=N)N=C(N)NS(=O)(=O)c1cccc(Cl)c1 | mM | 7.47

Please give the documented Km of CN(C)C(=N)N=C(N)NS(=O)(=O)c1ccccc1F
6.14

Please give the documented Km of CN(C)C(=N)N=C(N)NS(=O)(=O)c1ccccc1Cl
21.1

Please give the documented Km of CN(C)C(=N)N=C(N)NS(=O)(=O)c1ccc(Cl)cc1
8.81

Please give the documented Km of CN(C)C(=N)N=C(N)NS(=O)(=O)c1ccc(Br)cc1
8.93

Please give the documented Km of CN(C)C(=N)N=C(N)NS(=O)(=O)c1ccccc1Br
8.37

Please give the documented Km of CN(C)C(=N)N=C(N)NS(=O)(=O)c1cccc(Br)c1
6.85
